Reference for the values: paper PMC7343282

- Test system: rainbow trout (Oncorhynchus mykiss)
- experimental-details: Contribution of tissues to fish body burden
- Assay type: in vivo
- run-parameters: fraction, Fish #6
assay-readout: Contribution of Gills to the fish's body burden

[[record]]
structure = "CCCCCCCCCN"
result = 0.26

[[record]]
structure = "CCCCCCCCCCCCCN(C)C"
result = 0.24

[[record]]
structure = "CCCCCCCCCCCCN"
result = 0.26

[[record]]
structure = "CCCCCCCCCN(C)C"
result = 0.11

[[record]]
structure = "CCCCCCCCCCCCCCCCN"
result = 0.58

[[record]]
structure = "CCCCCCCCCCCCCN"
result = 0.26


---

- Tested on: rainbow trout (Oncorhynchus mykiss)
- experimental-details: Surface area-normalized mucus-water and gill-water distribution coefficients
- run-parameters: in vivo
- Method: For each mixture, the syringe pump was started in an aquarium containing no fish. After 16 h, to allow the concentrations to stabilize, 12 rainbow trout were added. […] The fish were weighed and photographed, and the length was measured. […] Because the mass of extracted mucus was not determined, the concentrations in mucus were normalized to the estimated fish’s total surface area (eq 1) excluding the head, which was not rinsed. […]
Decision: Mucus-water distribution coefficient (DMuc-W) compared against 1 mL cm-2; not below it gives t, below it gives f.

[[record]]
structure = "CCCCCCCCCCCCNC"
system_name = "rainbow trout (Oncorhynchus mykiss)"
cat = "t"

[[record]]
structure = "CCCCCCCCCC[N+](C)(C)C"
system_name = "rainbow trout (Oncorhynchus mykiss)"
cat = "f"

[[record]]
structure = "CCCCCCCCCCCCCC[N+](C)(C)C"
system_name = "rainbow trout (Oncorhynchus mykiss)"
cat = "t"

[[record]]
structure = "CCCCCCCCCCCCCCCCNC"
system_name = "rainbow trout (Oncorhynchus mykiss)"
cat = "t"

[[record]]
structure = "CCCCCCCCCCCCCCN(C)C"
system_name = "rainbow trout (Oncorhynchus mykiss)"
cat = "t"

[[record]]
structure = "CCCCCCCCCCN(C)C"
system_name = "rainbow trout (Oncorhynchus mykiss)"
cat = "t"


---

- System: rainbow trout (Oncorhynchus mykiss)
- experimental-details: Contribution of tissues to fish body burden
- Format: in vivo
- run-parameters: fraction, Fish #5
Could you mark each record Met if its Contribution of Skin to the fish's body burden falls strictly under 0.2, and Not met if it equals or exceeds it?

[[record]]
molecule = "CCCCCCCCCN [P9, Nonylamine]"
cat = "Met"

[[record]]
molecule = "CCCCCCCCCCCCCN [P13, tridecylamine]"
cat = "Not met"

[[record]]
molecule = "CCCCCCCCCCCCCN(C)C [T13, N,N-dimethyltridecylamine]"
cat = "Not met"

[[record]]
molecule = "CCCCCCCCCCCCCCCCN [P16, hexadecylamine]"
cat = "Met"

[[record]]
molecule = "CCCCCCCCCCCCN [P12, Dodecylamine]"
cat = "Met"

[[record]]
molecule = "CCCCCCCCCN(C)C [T9, N,N-dimethylnonylamine]"
cat = "Met"


---

Contribution of Mucus to the fish's body burden values by entry
- Tested on: rainbow trout (Oncorhynchus mykiss)
- experimental-details: Contribution of tissues to fish body burden
- Type: in vivo
- run-parameters: fraction, Fish #5
assay-readout: Contribution of Mucus to the fish's body burden

[[record]]
structure = "CCCCCCCCCCCCCN"
result = 0.09

[[record]]
structure = "CCCCCCCCCN"
result = 0.36

[[record]]
structure = "CCCCCCCCCN(C)C"
result = 0.08

[[record]]
structure = "CCCCCCCCCCCCCN(C)C"
result = 0.09

[[record]]
structure = "CCCCCCCCCCCCN"
result = 0.17

[[record]]
structure = "CCCCCCCCCCCCCCCCN"
result = 0.05


---

- System: rainbow trout (Oncorhynchus mykiss)
- experimental-details: Contribution of tissues to fish body burden
- Type: in vivo
- run-parameters: fraction, Fish #4
- Source text: To calculate the quantity of the test chemical in the different tissues, the amount of each tissue in the fish was estimated and multiplied by the concentration in that tissue. The test chemical quantities in the different tissues were then summed to give the body burden in each fish. […] The remaining tissue (difference between the weight of the whole fish and the weight of liver, gills, skin, and blood) was assumed to have the concentration measured in the muscle. […]
Quick reference for Contribution of Skin to the fish's body burden among some compounds
assay-readout: Contribution of Skin to the fish's body burden

[[record]]
structure = "CCCCCCCCCN(C)C"
result = 0.24

[[record]]
structure = "CCCCCCCCCCCCCN"
result = 0.21

[[record]]
structure = "CCCCCCCCCCCCN"
result = 0.19

[[record]]
structure = "CCCCCCCCCCCCCCCCN"
result = 0.12

[[record]]
structure = "CCCCCCCCCN"
result = 0.11

[[record]]
structure = "CCCCCCCCCCCCCN(C)C"
result = 0.17


---

Each entry below carries its recorded Contribution of Skin to the fish's body burden.
- Test system: rainbow trout (Oncorhynchus mykiss)
- experimental-details: Contribution of tissues to fish body burden
- Type: in vivo
- run-parameters: fraction, Fish #6
assay-readout: Contribution of Skin to the fish's body burden

[[record]]
structure = "CCCCCCCCCCCCCN(C)C"
system_name = "rainbow trout (Oncorhynchus mykiss)"
result = 0.25

[[record]]
structure = "CCCCCCCCCCCCN"
system_name = "rainbow trout (Oncorhynchus mykiss)"
result = 0.26

[[record]]
structure = "CCCCCCCCCN(C)C"
system_name = "rainbow trout (Oncorhynchus mykiss)"
result = 0.17

[[record]]
structure = "CCCCCCCCCN"
system_name = "rainbow trout (Oncorhynchus mykiss)"
result = 0.19

[[record]]
structure = "CCCCCCCCCCCCCN"
system_name = "rainbow trout (Oncorhynchus mykiss)"
result = 0.20

[[record]]
structure = "CCCCCCCCCCCCCCCCN"
system_name = "rainbow trout (Oncorhynchus mykiss)"
result = 0.13


---

- Tested on: rainbow trout (Oncorhynchus mykiss)
- experimental-details: Tissue concentrations in rainbow trout after 7 d exposure via water (two mixtures)
- Type: in vivo
- run-parameters: rainbow trout (Oncorhynchus mykiss), in vivo, 7 d
Concentration in liver overview
assay-readout: Concentration in liver

[[record]]
structure = "CCCCCCCCCCCCCN"
result = "50 000 (26) ng g^–1"

[[record]]
structure = "CCCCCCCCCCCCN"
result = "42 000 (15) ng g^–1"

[[record]]
structure = "CCCCCCCCCN"
result = "1710 (40) ng g^–1"

[[record]]
structure = "CCCCCCCCCCCCCCCCN"
result = "5500 (10) ng g^–1"


---

- experimental-details: Tissue-blood distribution coefficients and volume of distribution
- run-parameters: whole blood, pH 7.5, Estimated volume of distribution Vd, residues in muscle, liver and blood only; exposed fish #6
- Experimental: Blood is the transport medium for contaminants in fish, and the tissue distribution is governed by tissue–blood distribution coefficients. […] Muscle–blood and liver–blood distribution coefficients (DMus–B and DL–B) were calculated as the quotients of the concentrations in the respective tissues and blood. This approach implies that there was an internal test chemical steady state in the fish. […]
assay-readout: Vd at 7 d (L/kg)

[[record]]
structure = "CCCCCCCCCN"
value_units = "L/kg"
result = 0.56

[[record]]
structure = "CCCCCCCCCCCCN"
value_units = "L/kg"
result = 0.79

[[record]]
structure = "CCCCCCCCCCCCCN"
value_units = "L/kg"
result = 1.77

[[record]]
structure = "CCCCCCCCCCCCCCCCN"
value_units = "L/kg"
result = 0.73


---

- System: rainbow trout (Oncorhynchus mykiss)
- experimental-details: Surface area-normalized mucus-water and gill-water distribution coefficients
- run-parameters: in vivo
assay-readout: Gill-water distribution coefficient (DG-W) (mLcm-2)

[[record]]
compound = "CCCCCCCCCCCCCC[N+](C)(C)C [Q14, N,N,N-trimethyl-1-tetradecylammonium]"
result = 9.5

[[record]]
compound = "CCCCCCCCCCCCCCCCNC [S16, N-methylhexadecylamine]"
result = 300

[[record]]
compound = "CCCCCCCCCCCCCCN(C)C [T14, N,N-dimethyltetradecylamine]"
result = 150

[[record]]
compound = "CCCCCCCCCCN(C)C [T10, N,N-dimethyldecylamine]"
result = 1.95

[[record]]
compound = "CCCCCCCCCCCCNC [S12, N-methyldodecylamine]"
result = 13.3

[[record]]
compound = "CCCCCCCCCC[N+](C)(C)C [Q10, N,N,N-trimethyl-1-decylammonium]"
result = 0.0064


---

- System: rainbow trout (Oncorhynchus mykiss)
- experimental-details: Contribution of tissues to fish body burden
- Type: in vivo
- run-parameters: fraction, Fish #4
Please assign -1 whenever Contribution of Blood to the fish's body burden is at or above 0.02, and 1 whenever it is below.

[[record]]
structure = "CCCCCCCCCN(C)C"
cat = -1

[[record]]
structure = "CCCCCCCCCCCCN"
cat = 1

[[record]]
structure = "CCCCCCCCCCCCCN"
cat = 1

[[record]]
structure = "CCCCCCCCCCCCCCCCN"
cat = 1

[[record]]
structure = "CCCCCCCCCN"
cat = 1

[[record]]
structure = "CCCCCCCCCCCCCN(C)C"
cat = -1

